Tested on: OVCAR-5 ovarian
assayComment: NCI-60 one-dose screen, 48 h (100 = growth as untreated, 0 = no growth, -100 = all killed)
conditionContext: 10 µM
This is part of a sample that, as a whole, favours compounds with a hit. Of some 83,000 tested, about 20% had one in any assay.
recordedMetric: growth (%)
API: value field is a number in %; no unit string.

[[record]]
molecule = "Nc1ccccc1NC(=O)CCCCC(=O)Nc1ccc2c(c1)/C(=C/c1ccc[nH]1)C(=O)N2"
testtarget = "OVCAR-5 ovarian"
recordedmetric = "growth"
valuereported = 96.5

[[record]]
molecule = "COc1ccc(OC)c(NC(=O)c2sc3nc4c(cc3c2N)C(=O)CCC4)c1"
testtarget = "OVCAR-5 ovarian"
recordedmetric = "growth"
valuereported = 101

[[record]]
molecule = "CN1CC[C@@H](c2c(O)cc(O)c3c(=O)cc(-c4ccccc4Cl)oc23)[C@@H](O)C1"
testtarget = "OVCAR-5 ovarian"
recordedmetric = "growth"
valuereported = 16.4

[[record]]
molecule = "Cc1cccc(Cl)c1NC(=O)c1ccc2nc(NC(=O)NC3CCN(C)CC3)sc2c1"
testtarget = "OVCAR-5 ovarian"
recordedmetric = "growth"
valuereported = 71.1

[[record]]
molecule = "Clc1nc(Cl)c2c(ncn2C/C=C\\Cn2cnc3c(Cl)nc(Cl)nc32)n1"
testtarget = "OVCAR-5 ovarian"
recordedmetric = "growth"
valuereported = -76.7

[[record]]
molecule = "COC(=O)c1ccc(=O)oc1"
testtarget = "OVCAR-5 ovarian"
recordedmetric = "growth"
valuereported = 89.1


Let me check: Cc1cc(=O)n2nnc3c4ccccc4ccc3n12 , system OVCAR-5 ovarian, measured growth is 88.5

Let me check: CCN(CC)CCOc1nc2cc(OC)c(OC)cc2c2c1-c1ccc(OC)cc1C2=O , system OVCAR-5 ovarian, measured growth is 111

Let me check: CCCC(F)C(=O)O (configuration not stated) , system OVCAR-5 ovarian, measured growth is 115

Let me check: CCCCCCN1CCN(Cc2ccc(N(CC)CC)cc2)C(=O)C1=O , system OVCAR-5 ovarian, measured growth is 58.8

Let me check: COc1ccc(-c2cc(-c3ccc(N(C)C)cc3)c(C#N)c(N3CCCC3)n2)cc1 , system OVCAR-5 ovarian, measured growth is 64.8

Let me check: COc1cc2cc3c(nc2cc1OC)CCN3Cc1ccc(NC(=O)c2ccc(Cl)c(C(F)(F)F)c2)cc1 , system OVCAR-5 ovarian, measured growth is 99.5

Let me check: COc1cc(Nc2ccnc(NCCCNc3ccnc4cc(Cl)ccc34)n2)cc(OC)c1 , system OVCAR-5 ovarian, measured growth is 44.7

Let me check: COc1ccc(-c2nc3sc(-c4ccccc4)c(-c4ccccc4)n3c2/C=C/C(=O)c2ccccn2)cc1 , system OVCAR-5 ovarian, measured growth is 115

Let me check: CCCC#CCN(CC)CC , system OVCAR-5 ovarian, measured growth is 112

Let me check: CCOC(=O)CNC(=O)CCCCSc1ncnc2nc[nH]c12 , system OVCAR-5 ovarian, measured growth is 90.1

Let me check: O=C(Nc1cccc(-n2cc(-c3ccncc3)c(-c3ccc(O)c(Cl)c3)n2)c1)Nc1cccc(C(F)(F)F)c1 , system OVCAR-5 ovarian, measured growth is 38.1

Let me check: Cc1ccc(-c2nc(/C=C3/C(=O)N(C)c4ccc(F)cc43)c3ccccn23)cc1 , system OVCAR-5 ovarian, measured growth is 106

Let me check: NC1(C(=O)O)CSSC1 , system OVCAR-5 ovarian, measured growth is 113

Let me check: COc1ccc2c(c1)N(CCO)C1=C(C(=O)OC1)C2c1ccc(OC)c(OC)c1 (configuration not stated) , system OVCAR-5 ovarian, measured growth is 47.7

Let me check: c1ccc2c(c1)oc1c3cccnc3ccc21 , system OVCAR-5 ovarian, measured growth is 100

Let me check: O=C1C(=O)c2ccccc2C(O)=C1CCCc1ccc(C2CCCCCC2)cc1 , system OVCAR-5 ovarian, measured growth is 82.6

###

Tested on: T-47D breast
assayComment: NCI-60 one-dose screen, 48 h (100 = growth as untreated, 0 = no growth, -100 = all killed)
conditionContext: 10 µM
This is part of a sample that, as a whole, favours compounds with a hit. Of some 83,000 tested, about 20% had one in any assay.
recordedMetric: growth (%)
API: value field is a number in %; no unit string.

[[record]]
compound = "Cc1cc(Cc2cc(C)c(O)c(C)c2)cc(C)c1O"
valuereported = 52.8

[[record]]
compound = "c1ccc(CSc2nnc3c4c5c(sc4nc(-c4cccnc4)n23)CCCCCC5)cc1"
valuereported = 14

[[record]]
compound = "N#Cc1ncc(-c2ccc(C(F)(F)F)cc2)c(NCc2cc(C(F)(F)F)cc(C(F)(F)F)c2)n1"
valuereported = 9.88

[[record]]
compound = "COc1cc(NC(=O)c2sc3nc4c(cc3c2N)C(O)CCC4)cc(OC)c1 (stereo unspecified)"
valuereported = 90.8

[[record]]
compound = "Cc1cc(Nc2ccc(Cl)cc2)nc(NCCCNc2ccnc3cc(Cl)ccc23)n1"
valuereported = -90.2


Note: attention shifts to another entry.
Query CC/C(C)=C(\C)C(=O)O yields growth of 100

###

Test system: ACHN renal
assayComment: NCI-60 one-dose screen, 48 h
conditionContext: 10 µM
About 83,000 compounds went through this panel and 20% of them were active in at least one assay; those are over-represented in the sample as a whole. Activity calls are given as the source filed them. The calls were made as follows: active = growth percent below 10; inactive = the rest.
I would appreciate it if you answered using one of these outcomes: T (active), F (inactive)

Would you mind telling me which call this test gave C#Cc1ccc(-n2c(/C=C/c3ccc(Cl)c(F)c3)nc3ncccc3c2=O)cc1 ? T

Would you mind telling me which call this test gave N#Cc1ncc(-c2ccc(C(F)(F)F)cc2)c(NCc2cc(C(F)(F)F)cc(C(F)(F)F)c2)n1 ? T

Would you mind telling me which call this test gave CCN(CC)CCCC(C)Nc1ccc2ccc(Cl)cc2n1 (stereo not given) ? F

Would you mind telling me which call this test gave O=c1[nH]c2ccc(Cl)cc2c2ccccc12 ? F

Would you mind telling me which call this test gave O=C1NC(=O)N(Cc2ccccc2)CC1Br (stereo not given) ? F

###

Tested on: TK-10 renal
assayComment: NCI-60 one-dose screen, 48 h (100 = growth as untreated, 0 = no growth, -100 = all killed)
conditionContext: 10 µM
This is part of a sample that, as a whole, favours compounds with a hit. Of some 83,000 tested, about 20% had one in any assay.
Threshold 80%: growth strictly smaller gives class 1, otherwise class 0.

For orientation, consider the following solved cases.
[[record]]
molecule = "CCN(CC)CCCOCCCNc1cc(OC)cc2cccnc12"
classname = "class 0"

[[record]]
molecule = "COC(=O)C1=NNC(=S)N(c2cc(C)[nH]n2)C(=O)C1"
classname = "class 0"

[[record]]
molecule = "CC(=O)/C(=C/c1ccccc1)C(=O)CC(C)C"
classname = "class 0"

[[record]]
molecule = "O=C(CC(NC(=O)OCc1ccccc1)C(=O)OCc1ccccc1)OCc1ccccc1 (stereo not given)"
classname = "class 0"

[[record]]
molecule = "O=C(Nc1nc2ccc(F)cc2s1)c1cc(-c2ccc(F)cc2)n2nc(-c3ccccc3)cc2n1"
classname = "class 0"

[[record]]
molecule = "COc1ccc(-c2cc(/C=C3\\C(=O)Nc4ccc(OC)cc43)[nH]n2)cc1"
classname = "class 1"

[[record]]
molecule = "Nc1ccc2c(c1)Cc1cc(N)c(Br)cc1-2"
classname = "class 0"

[[record]]
molecule = "O=S(=O)(NCCCNc1nccc(-c2c(-c3ccc(F)cc3)nc3sccn23)n1)c1ccc(F)cc1"
classname = "class 1"

[[record]]
molecule = "CN1CCC2(CC1)NC(=O)c1c(c3ccc(Cl)c(Cl)c3n1C)C2C#N (stereo not given)"
classname = "class 0"


A record lists O=C(Nc1cccc(-n2cc(-c3ccncc3)c(-c3ccc(O)c(Cl)c3)n2)c1)Nc1ccc(Cl)c(Cl)c1 . Is its growth below 80%? class 1

###

Tested on: SK-MEL-28 melanoma
assayComment: NCI-60 one-dose screen, 48 h (100 = growth as untreated, 0 = no growth, -100 = all killed)
conditionContext: 10 µM
About 83,000 compounds went through this panel and 20% of them were active in at least one assay; those are over-represented in the sample as a whole.
recordedMetric: growth (%)
API: value field is a number in %; no unit string.

# count of solved cases: 9
[[record]]
compound = "COc1ccc(OC)c(/C=C/c2nc(SCc3ccccc3)n(-c3ccc(Cl)cc3)n2)c1"
recordedmetric = "growth"
valuereported = 71.5

[[record]]
compound = "Cn1c(N)c(N=Nc2ccc(S(=O)(=O)Nc3nccs3)cc2)c(=O)n(C)c1=O"
recordedmetric = "growth"
valuereported = 112

[[record]]
compound = "COc1ccc(-c2csc(NC(=O)CSc3nc(C)c(-c4ccccc4)n3Nc3ccccc3)n2)cc1"
recordedmetric = "growth"
valuereported = 89.6

[[record]]
compound = "N=c1nc(N)ncn1-c1ccccc1"
recordedmetric = "growth"
valuereported = 98.6

[[record]]
compound = "O=C1Nc2ccc(Cl)cc2/C1=C\\c1c(-c2ccc(Cl)cc2)nc2sc(C3CC3)nn12"
recordedmetric = "growth"
valuereported = 46

[[record]]
compound = "Nc1nc(N)c2c(ccc3nccc32)[nH]1"
recordedmetric = "growth"
valuereported = 83.4

[[record]]
compound = "COc1ccc(/C=C2/CN(C(=O)c3ccccc3F)C/C(=C\\c3ccc(OC)cc3)C2=O)cc1"
recordedmetric = "growth"
valuereported = 69.4

[[record]]
compound = "CS(=O)(=O)Nc1cccc(-c2cc(-c3ccccc3Cl)c(C#N)c(N)n2)c1"
recordedmetric = "growth"
valuereported = 69.1

[[record]]
compound = "COc1ccc2nc3cc(Cl)ccc3c(NCCNCC(C)O)c2c1 (stereo not given)"
recordedmetric = "growth"
valuereported = 54.7


Query Cc1cccc(NC2=C(C#N)C(=O)NC3(CCCC3)S2)c1 yields growth of 105
